Origin of the recorded values: patent US20250179047A1

- TEST DESCRIPTION: Pharmacokinetics in SCID mice
- Type: in vivo
- TEST CONDITIONS: mouse, blood, 25 mg/kg IV bolus, area under curve over 24 h, read-out: PK parameters AUC24
- Procedure: Pharmacokinetic (PK) and platelet toxicity were investigated in SCID mice. Compounds were administered at 25 mg/kg by IV bolus, and formulated in PEG/Ethanol/NaCl 0.9% (40/10/50 v/v/v). […] PK samples were analyzed by liquid chromatography using tandem mass spectrometry detection (LC-MS/MS) and platelet count (109/L) was measured using an hematology analyzer. Percentage of platelet loss was calculated at both time points (T+6 h and 24 h) as compared to a control group of 6 animals. […]
# maps each entry to its AUC
TEST READOUT: AUC

* Cc1c(N(C(=O)c2cc(-c3cc4c(cc3C(=O)N3Cc5ccccc5C[C@H]3CN3CCCCC3)CN(C(=O)Cc3ccc(OCCC5CCOCC5)cc3F)CC4)n(C)c2C)c2ccc(O)cc2)cc(C#N)n1C | 9.7 µM·h
* Cc1c(N(C(=O)c2cc(-c3cc4c(cc3C(=O)N3Cc5ccccc5C[C@H]3C)CN(C(=O)Cc3ccc(OCCC5CCOCC5)cc3)CC4)n(C)c2C)c2ccc(O)cc2)cc(C#N)n1C | 19.5 µM·h
* Cc1c(N(C(=O)c2cc(-c3cc4c(cc3C(=O)N3Cc5ccccc5C[C@H]3C)CN(C(=O)Cc3ccc(N5CCN6CCOC[C@@H]6C5)cc3F)CC4)n(C)c2C)c2ccc(O)cc2)cc(C#N)n1C | 34.2 µM·h
* Cc1c(N(C(=O)c2cc(-c3cc4c(cc3C(=O)N3Cc5ccccc5C[C@H]3C)CN(S(=O)(=O)Cc3ccccc3)CC4)n(C)c2C)c2ccc(O)cc2)cc(C#N)n1C | 18.5 µM·h
* COc1ccc(CC(=O)N2CCc3cc(-c4cc(C(=O)N(c5ccc(O)cc5)c5cc(C#N)n(C)c5C)c(C)n4C)c(C(=O)N4Cc5ccccc5C[C@H]4CN4CCCCC4)cc3C2)c(F)c1 | 12.6 µM·h
* Cc1c(N(C(=O)c2cc(-c3cc4c(cc3C(=O)N3Cc5ccccc5C[C@H]3C)CN(C(=O)Cc3ccc(OCCN5CCOCC5)cc3)CC4)n(C)c2C)c2ccc(O)cc2)cc(C#N)n1C | 12 µM·h
